I'd appreciate it if you could supply activity at 6000 µM values for the items below.
# target desc: CpunPBP2 (Conogethes punctiferalis, UniProt A0A1D6X8W8)
# Sequence (A0A1D6X8W8 entry or part of it): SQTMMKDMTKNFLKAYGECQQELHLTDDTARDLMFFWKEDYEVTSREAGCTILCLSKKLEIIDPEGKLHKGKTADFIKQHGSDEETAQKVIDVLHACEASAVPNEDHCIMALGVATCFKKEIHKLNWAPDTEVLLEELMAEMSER
# procedure text: Fluorescence displacement (competitive, 1-NPN) binding assay
# condition label: ratio of fluorescence intensity at the pheromone concentration of 6 mM to the initial fluorescence intensity; pH = 7.4; read-out: Int (%)
// return numeric value only (unit: %, not printed)

Query :: Give a short answer stating reported activity at 6000 µM for `CCCCCCCCCCCCCCCC(=O)O` .
Result :: 73.6

Query :: Give a short answer stating reported activity at 6000 µM for CC1=CCC2CC1C2(C)C (stereo not shown) .
Result :: 77.7

Query :: Give a short answer stating reported activity at 6000 µM for `CCCCCCCCCC=O` .
Result :: 72.9

Query :: Give a short answer stating reported activity at 6000 µM for `CCCCCCCCCCC=O` .
Result :: 56.6

Query :: Give a short answer stating reported activity at 6000 µM for CCCCC/C=C\CCCCCCCCC=O [Z10-16:Ald, (Z)-10-hexadecenal] .
Result :: 42.5

Query :: Give a short answer stating reported activity at 6000 µM for CCCCC/C=C/CCCCCCCCC=O [E10-16:Ald, (E)-10-hexadecenal] .
Result :: 39.5

Query :: Give a short answer stating reported activity at 6000 µM for C=CC(C)(O)CCC=C(C)C (stereo not shown) .
Result :: 72.3

Query :: Give a short answer stating reported activity at 6000 µM for `CCCCCCCCC=O` .
Result :: 77.2

Query :: Give a short answer stating reported activity at 6000 µM for `CCCCCCCCCCCCCCCC=O` .
Result :: 34

Query :: Give a short answer stating reported activity at 6000 µM for `CCCCCCC=O` .
Result :: 84.8

Query :: Give a short answer stating reported activity at 6000 µM for `COc1cc(C=O)ccc1O` .
Result :: 85.4

Query :: Give a short answer stating reported activity at 6000 µM for CCC(C)CCCC(C)C (stereo not shown) .
Result :: 78.2

Query :: Give a short answer stating reported activity at 6000 µM for CCCCCC/C=C/C=O [Trans-2-nonenal] .
Result :: 86.5

* * *

# target desc: CpunPBP2-m3 (CpunPBP2-Ser53 mutant) (Conogethes punctiferalis, UniProt A0A1D6X8W8, S77Y)
# Sequence (A0A1D6X8W8 entry or part of it S77Y): as the sequence (A0A1D6X8W8 entry or part of it) above, with S56Y counted along it
# procedure text: Fluorescence displacement binding assay of mutants
# condition label: read-out: KD, calculated dissociation constant
# Protocol: The fluorescence intensity was recorded on a FluoroMax-4 spectrophotometer (Horiba Scientific, USA) at room temperature using a 1 cm light path fluorimeter quartz cuvette. The fluorescent probe N-phenyl-1-naphthylamine (1-NPN) and all the tested chemicals were dissolved in HPLC purity methanol. The final concentration was prepared 1 mM. […] The fluorescence of 1-NPN was excited at 337 nm and emission spectra were recorded between 300 and 450 nm. […]
I'd appreciate it if you could supply Kd values for the items below.
Returns: string containing the number followed by the unit.

Query :: Give a short answer stating reported Kd for CCCCC/C=C\CCCCCCCCC=O [Z10-16:Ald, (Z)-10-hexadecenal] .
Result :: 100 nM

Query :: Give a short answer stating reported Kd for CCCCC/C=C/CCCCCCCCC=O [E10-16:Ald, (E)-10-hexadecenal] .
Result :: 110 nM

* * *

# target desc: CpunPBP2-m1 (CpunPBP2-Phe9 mutant) (Conogethes punctiferalis, UniProt A0A1D6X8W8, F33Y)
# Sequence (A0A1D6X8W8 entry or part of it F33Y): as the sequence (A0A1D6X8W8 entry or part of it) above, with F12Y counted along it
# procedure text: Fluorescence displacement binding assay of mutants
# condition label: read-out: KD, calculated dissociation constant
I'd appreciate it if you could supply Kd values for the items below.
// return numeric value only (unit: nM, not printed)

Query :: Give a short answer stating reported Kd for CCCCC/C=C/CCCCCCCCC=O [E10-16:Ald, (E)-10-hexadecenal] .
Result :: 220

Query :: Give a short answer stating reported Kd for CCCCC/C=C\CCCCCCCCC=O [Z10-16:Ald, (Z)-10-hexadecenal] .
Result :: 210
